Assay: self-splicing fitness, log relative to wild type (ln ratio); higher = more splicing; Tetrahymena group I intron in knt gene, E. coli kanamycin selection, DiMSum; sequences stand for … in CUCUCU…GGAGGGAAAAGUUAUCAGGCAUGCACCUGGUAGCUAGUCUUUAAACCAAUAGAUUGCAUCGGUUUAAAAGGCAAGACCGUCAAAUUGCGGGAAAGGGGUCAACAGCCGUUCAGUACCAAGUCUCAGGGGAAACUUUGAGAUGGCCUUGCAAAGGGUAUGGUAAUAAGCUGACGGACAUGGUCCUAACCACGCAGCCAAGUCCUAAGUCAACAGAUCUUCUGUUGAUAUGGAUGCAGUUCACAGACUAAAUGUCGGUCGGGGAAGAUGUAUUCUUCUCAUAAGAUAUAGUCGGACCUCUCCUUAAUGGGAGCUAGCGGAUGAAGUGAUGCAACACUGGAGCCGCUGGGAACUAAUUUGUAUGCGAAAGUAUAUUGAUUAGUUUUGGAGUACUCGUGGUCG;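 also: selection with 25 µg/mL kanamycin versus none on LB agar overnight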
Details: 30 °C
Overview of reported self-splicing fitness (ln) across a group of sequences:
MEASUREMENT_TYPE: self-splicing fitness (ln)

> print(dat)
         sequence.string  test.value
 1  UAAAAGCAAUAUUACGUUUG       -2.22
 2  AUGAAGCAAUAUUACGAGGC       -4.11
 3  GUAGAGCAAUAUUACGUAUC       -2.44
 4  GUAAAGCAAUAUUACGACUU       0.245
 5  AAUCAGCAAUAUUACGUUUA      -0.652
 6  UUUGAGCAAUAUUACGAUAG       -2.09
 7  GCUAAGCAAUAUUACGCGUU       -1.23
 8  UGCAAGCAAUAUUACGCAGA       -1.92
 9  UAGCAGCAAUAUUACGCUUC       -3.05
10  UAGUAGCAAUAUUACGUAUG       -1.82
11  GAGAAGCAAUAUUACGUUGC       -3.47
12  UGCUAGCAAUAUUACGAGGG       -2.22
13  GUGAAGCAAUAUUACGGCCG       -1.03
14  AGACAGCAAUAUUACGCCCU      -0.687
15  GCAAAGCAAUAUUACGUUAA       -1.83
16  AGACAGCAAUAUUACGCUGG       -3.98
17  UUCCAGCAAUAUUACGACAC       -3.32
18  UACGAGCAAUAUUACGACGU       -2.08
19  UAGUAGCAAUAUUACGGCAG       -1.01

* * *

Test: self-splicing fitness, log relative to wild type (ln ratio); higher = more splicing; Tetrahymena group I intron in knt gene, E. coli kanamycin selection, DiMSum; sequences stand for … in CUCUCU…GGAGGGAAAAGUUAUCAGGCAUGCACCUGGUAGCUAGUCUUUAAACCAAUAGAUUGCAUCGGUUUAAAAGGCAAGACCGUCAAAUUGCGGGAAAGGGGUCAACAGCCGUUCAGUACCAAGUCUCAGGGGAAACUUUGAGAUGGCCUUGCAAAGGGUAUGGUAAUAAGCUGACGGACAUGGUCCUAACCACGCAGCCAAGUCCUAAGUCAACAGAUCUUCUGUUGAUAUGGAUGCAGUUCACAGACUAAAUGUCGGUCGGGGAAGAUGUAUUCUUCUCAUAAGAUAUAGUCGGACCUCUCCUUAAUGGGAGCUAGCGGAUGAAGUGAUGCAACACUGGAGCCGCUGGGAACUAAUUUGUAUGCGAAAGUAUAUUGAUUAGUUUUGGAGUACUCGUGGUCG
Settings: 30 °C
# if value of self-splicing fitness (ln) reaches -2, tag fulfilled; if it stays below, tag not fulfilled

> print(dat)
         sequence.string    class.label
 1  AGGUAGCAAUAUUACGAACA      fulfilled
 2  AUUGAGCAAUAUUACGAGUC  not fulfilled
 3  UCUAAGCAAUAUUACGGGAA  not fulfilled
 4  CAAGAGCAAUAUUACGUGUG  not fulfilled
 5  CUCAAGCAAUAUUACGUACG      fulfilled
 6  GAUAAGCAAUAUUACGUUAG  not fulfilled
 7  GGCGAGCAAUAUUACGGUGA  not fulfilled
 8  CGAUAGCAAUAUUACGAGGC  not fulfilled
 9  CCGGAGCAAUAUUACGGGCA  not fulfilled
10  GGGCAGCAAUAUUACGAUAG  not fulfilled
11  CGUGAGCAAUAUUACGAGGA  not fulfilled
12  CCGCAGCAAUAUUACGGAGG  not fulfilled
13  GGUAAGCAAUAUUACGGACA      fulfilled
14  CGUUAGCAAUAUUACGGACC      fulfilled
15  UCCAAGCAAUAUUACGGUGC  not fulfilled
16  CGCGAGCAAUAUUACGAGCU  not fulfilled
